Target: T1, NHERF3_1, Q5T2W1
T1 sequence (Q5T2W1 4-100, limits assumed, looked up): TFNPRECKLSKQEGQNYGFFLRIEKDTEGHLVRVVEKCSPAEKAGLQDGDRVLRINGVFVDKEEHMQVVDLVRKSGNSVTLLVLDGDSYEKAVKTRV
Assay: holdup assay
Design: key: below the threshold = too weak to quantify, mostly under pKd 3.1 to 4
Conditions: plain residues with an end cap or a label only (N-terminal biotin on a linker: ado-ado)
Task for the reader: assign each of the following binders its reported pKd.
Write no unit; give the number alone.

Just so you know, measured pKd for SSSVNVSSNL [CXCR1, P25024] came out at 4.43

Entry RDYTQSSSSL [GRM5, P41594] ; pKd = 5.02

Measured pKd, PAALPESTHM [SLC9A3, P48764] : 5.37

GET /value?item= EAVTVESTSL [SLC22A11, Q9NSA0] &field=pKd returns 6.1
